These data points were gathered from patent US20210230570.

- STUDY_SYSTEM: Factor X (FX), P00742
- Sequence (P00742 whole entry, looked up): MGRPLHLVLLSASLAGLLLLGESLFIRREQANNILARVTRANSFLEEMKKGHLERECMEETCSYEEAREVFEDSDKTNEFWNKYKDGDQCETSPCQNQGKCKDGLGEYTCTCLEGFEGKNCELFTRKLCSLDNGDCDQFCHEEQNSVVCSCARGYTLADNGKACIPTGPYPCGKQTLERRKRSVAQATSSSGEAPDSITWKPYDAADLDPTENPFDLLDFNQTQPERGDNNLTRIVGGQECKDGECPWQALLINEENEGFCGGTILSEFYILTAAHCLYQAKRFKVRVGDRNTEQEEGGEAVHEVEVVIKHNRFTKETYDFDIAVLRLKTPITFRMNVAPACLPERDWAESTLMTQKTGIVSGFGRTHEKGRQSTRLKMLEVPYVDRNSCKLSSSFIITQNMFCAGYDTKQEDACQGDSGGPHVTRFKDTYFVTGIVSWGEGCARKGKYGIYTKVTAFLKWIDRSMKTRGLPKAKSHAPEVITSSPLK
READOUT_KIND: kcat/KM (M⁻¹ s⁻¹)

>>> recorded_measurement("FIXa-A103N/N105S/K247N/N249S/R318Y/R338E/R403E/E410N (protein) chain 1: YNSGKLEEFVQGNLERECMEEKCSFEEAREVFENTERTTEFWKQYVDGDQCESNPCLNGGSCKDDINSYECWCPFGFEGKNCELDVTCNIKNGRCEQFCKNSNDSKVVCSCTEGYRLAENQKSCEPAVPFPCGRVSVSQTSKLTR chain 2: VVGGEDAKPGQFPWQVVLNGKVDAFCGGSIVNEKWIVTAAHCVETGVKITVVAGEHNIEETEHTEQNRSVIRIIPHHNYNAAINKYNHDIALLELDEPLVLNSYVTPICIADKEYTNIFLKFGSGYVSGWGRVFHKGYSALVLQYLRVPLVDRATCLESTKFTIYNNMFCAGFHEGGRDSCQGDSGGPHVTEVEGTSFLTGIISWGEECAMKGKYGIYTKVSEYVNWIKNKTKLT")
"1.5e+08"
